# target.desc: Sphingosine 1-phosphate receptor 5 (Homo sapiens)
# Sequence (Q9H228 whole entry): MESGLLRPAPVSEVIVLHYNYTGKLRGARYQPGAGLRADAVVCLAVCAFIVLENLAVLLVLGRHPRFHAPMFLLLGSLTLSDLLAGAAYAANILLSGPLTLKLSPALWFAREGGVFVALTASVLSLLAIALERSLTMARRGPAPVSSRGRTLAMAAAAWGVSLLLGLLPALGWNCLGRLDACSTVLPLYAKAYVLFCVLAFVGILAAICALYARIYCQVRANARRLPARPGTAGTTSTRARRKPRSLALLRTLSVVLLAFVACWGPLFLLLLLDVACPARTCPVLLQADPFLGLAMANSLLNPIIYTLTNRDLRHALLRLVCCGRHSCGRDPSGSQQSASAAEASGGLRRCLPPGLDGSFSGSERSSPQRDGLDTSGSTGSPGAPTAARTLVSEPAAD
# measurement.notes: In Vitro Functional Activity (Agonism) on Human S1P5 Receptors: The CHO-human-S1P5-Aeqorin assay was bought from Euroscreen, Brussels (Euroscreen, Technical dossier, Human Lysophospholid S1P5 (Edg8) receptor, DNA clone and CHO AequoScreen™ recombinant cell-line, catalog no: ES-593-A, September 2006). Human-S1P5-Aequorin cells express mitochondrial targeted apo-Aequorin. Cells have to be loaded with coelanterazine, in order to reconstitute active Aequorin. After binding of agonists to the human S1P5 receptor the intracellular calcium concentration increases and binding of calcium to the apo-Aequorin/coelenterazine complex leads to an oxidation reaction of coelenterazine, which results in the production of apo-Aequorin, coelenteramide, CO2 and light ([…]max 469 nm). This luminescent response is dependent on the agonist concentration. Luminescence is measured using the MicroBeta Jet (Perkin Elmer). Agonistic effects of compounds are expressed as pEC50. Compounds were tested at a 10 points half log concentration range, and 3 independent experiments were performed in single point's measurements.
outcome.measure: EC50 (nM)
Numbers only here, please. The scale is nM.

Q: Value lookup for EC50; key = CC(C)c1cccc(F)c1COc1ccc2c(c1)OCC21CCN(CCC(=O)O)CC1
A: 50.1

Q: Value lookup for EC50; key = O=C(O)CCN1CCCC2(COc3cc(OCc4c(Cl)cccc4C(F)(F)F)ccc32)C1 (configuration not stated)
A: 50.1
